# System: OVCAR-3 ovarian
# ASSAY_REMARKS: NCI tumour cell line growth inhibition, 48 h
ASSAY_ENDPOINT: TGI

INSERT INTO measurements (molecule, assay_endpoint, result) VALUES
  ('O=c1c2cc(-c3ccccc3)cnc2sn1-c1ccc([N+](=O)[O-])cc1', 'TGI', '60.2 µM'),
  ('O=C([C@H](O)[C@@H](O)c1ccc(Br)cc1)C12CC3CC(CC(C3)C1)C2', 'TGI', '32.4 µM'),
  ('COc1cc(Nc2ncc3c(n2)-c2ccc(Cl)cc2C(c2c(F)cccc2OC)=NC3)ccc1C(=O)O', 'TGI', '34.4 µM');

We now examine a further molecule.
Provide the documented TGI with OVCAR-3 ovarian as the system for CC1NOC(NS(=O)(=O)c2ccc(N=Nc3c(O)c(C(=O)O)cc4ccccc34)cc2)C1C (stereo unspecified)
> 100 µM

---

Each item that follows carries a reported TGI.
# System: SR leukemia
# ASSAY_REMARKS: NCI tumour cell line growth inhibition, 48 h

// solved cases for TGI follow
INSERT INTO results (compound, assay_endpoint, result) VALUES
  ('NCCCCNCCCN', 'TGI', '> 100 µM'),
  ('COC(=O)Nc1nc2c(OC)c(OC)c(OC)cc2[nH]1', 'TGI', '> 75.7 µM'),
  ('O=C1c2c(c3c4ccccc4n4c3c3c2c2ccccc2n3C/C=C\C4)C(=O)N1Cc1ccccc1', 'TGI', '> 100 µM'),
  ('BrP(NC1CCCCCC1)(c1ccccc1)(c1ccccc1)c1ccccc1', 'TGI', '> 100 µM'),
  ('COc1ccc2[nH]c(C(=O)N3CC(CCl)c4ccc([N+](=O)[O-])cc43)cc2c1 (stereo unspecified)', 'TGI', '> 100 µM'),
  ('COC(=O)C1=C(OC(=O)/C(=C/c2ccc(Cl)cc2)c2ccccc2)C(C(=O)OC)[C@@]2(O)[C@@H](C(=O)OC)[C@H](C)C[C@@H]1[C@@H]2C(=O)OC (stereo partly specified)', 'TGI', '> 100 µM'),
  ('CCOC(=O)Nc1nc2c(F)c(F)c(F)cc2s1', 'TGI', '> 100 µM'),
  ('CN(C)c1nc(N(C)C)nc(N(C)CN(C)c2nc(N(C)C)nc(N(C)C)n2)n1', 'TGI', '> 100 µM');

# TGI lookup, item O=C1C[C@H](c2ccccc2)C2(C(=O)c3ccccc3C2=O)[C@@H](c2ccccc2)C1
> 100 µM

Please answer likewise for O=C(c1ccc(Cl)cc1)N(C(=S)N1CCN(c2ccccn2)CC1)c1ccccc1
> 100 µM

One more compound: CCN(CC)C(=S)SNCCc1ccc(S(N)(=O)=O)cc1
> 49.4 µM

---

# Tested on: OVCAR-5 ovarian
# ASSAY_REMARKS: NCI tumour cell line growth inhibition, 48 h
Listed here are molecules together with their documented TGI.

INSERT INTO measurements (molecule, assay_endpoint, result) VALUES
  ('COc1ccc(N2C(=O)C3c4[nH]c5ccccc5c4C4CCC(C(C)C)CC4C3C2=O)cc1 (stereo not drawn)', 'TGI', '> 100 µM'),
  ('COc1ccc(N2CCN(CC(=O)N3CCN(c4nnc(-c5ccccc5)c(-c5ccccc5)n4)CC3)CC2)cc1', 'TGI', '> 100 µM');

Using the record for COC(=O)C[C@H](COCc1ccccc1)NC(=O)C[C@H](COCc1ccccc1)NC(=O)C[C@H](COCc1ccccc1)NC(=O)OC(C)(C)C , report its TGI.
> 100 µM

---

# Tested on: UO-31 renal
# ASSAY_REMARKS: NCI tumour cell line growth inhibition, 48 h
# TGI listing for each entry below

Observe how each entry below is paired with its result.
INSERT INTO assay_data (chemical_string, assay_endpoint, result) VALUES
  ('COc1ccc(S(=O)(=O)O)cc1NS(=O)(=O)c1ccc(C)cc1', 'TGI', '> 100 µM'),
  ('c1ccc(-c2n(Cc3ccc4ccccc4n3)c3ccccc3[n+]2Cc2ccc3ccccc3n2)cc1', 'TGI', '2.89 µM');

Now consider the entry below.
What measured TGI goes with CCCNC(=O)c1cc2ccccc2cc1C(=O)OC ?
> 100 µM

---

# Test system: CCRF-CEM leukemia
# ASSAY_REMARKS: NCI tumour cell line growth inhibition, 48 h; in the data active = GI50 below about 0.43 µM; inactive = the rest
Just give me one of these, please: 1.0 (active), 0.0 (inactive)

INSERT INTO measurements (compound, assay_system, answer_label) VALUES
  ('COc1cc2c(cc1OCCCCC(=O)Nc1ccc(-c3nc4ccccc4s3)cc1)N=C[C@@H]1CCCN1C2=O', 'CCRF-CEM leukemia', 0.0),
  ('COc1cc(C2c3cc4c(cc3C3OC(=O)C2C3CO)OCO4)cc(OC)c1OC (stereo not given)', 'CCRF-CEM leukemia', 1.0),
  ('O=C(O)c1cn(C2CC2)c2cc(N3CCN(S(=O)(=O)c4ccc(Cl)c(Cl)c4)CC3)c(F)cc2c1=O', 'CCRF-CEM leukemia', 0.0),
  ('CC[C@](O)(C(=O)O)c1cc2n(c(=O)c1CO)Cc1cc3ccccc3nc1-2', 'CCRF-CEM leukemia', 1.0),
  ('CC12C=CC(C)(O1)C1C2c2ccccc2S1(=O)=O (stereo not given)', 'CCRF-CEM leukemia', 0.0),
  ('COC(=O)c1[nH]nc(-c2ccccc2)c1N1CCCCC1', 'CCRF-CEM leukemia', 0.0),
  ('Cc1cc(N(CCCNc2ccnc3cc(Cl)ccc23)Cc2cccs2)nc(Cl)n1', 'CCRF-CEM leukemia', 0.0),
  ('COc1ccc(-c2nnc3n(C)c(=O)c4ccccc4n23)cc1O', 'CCRF-CEM leukemia', 0.0);

Per the records of this test, what outcome belongs to Cc1cc(-c2ccccc2)c(C)n1Cc1ccc(Cl)cc1 ?
0.0

What would you report for NC1=CC(=O)C(=O)c2cccnc21 ?
0.0

---

# System: SR leukemia
# ASSAY_REMARKS: NCI tumour cell line growth inhibition, 48 h; in the data active = GI50 below about 0.43 µM; inactive = the rest
Answer with one of the outcomes given here: active, inactive

Here are 3 compounds together with their reported answers.
INSERT INTO measurements (chemical_string, answer_label) VALUES
  ('Cc1cc[c-]cc1.Fc1c[c-]c(-c2ccccn2)c(F)c1.N#CCC[PH+](CCC#N)c1ccccc1.[Pt+2]', 'inactive'),
  ('CC(=O)OCCC/C(=C\c1ccc2ccccc2c1)[N+](=O)[O-]', 'inactive'),
  ('COc1ccc2nc(-c3ccccc3)cc(Nc3ccc(/C(C)=N/O)cc3)c2c1', 'inactive');

# lookup: test call for c1ccc(-c2n(Cc3ccc4ccccc4n3)c3ccccc3[n+]2Cc2ccc3ccccc3n2)cc1
active

---

# Tested on: SN12C renal
# ASSAY_REMARKS: NCI tumour cell line growth inhibition, 48 h
ASSAY_ENDPOINT: TGI

Before answering, review these 3 worked examples.
INSERT INTO measurements (compound, assay_system, assay_endpoint, result) VALUES
  ('N#Cc1cc2cc3c4c(c2oc1=O)CCCN4CCC3', 'SN12C renal', 'TGI', '> 100 µM'),
  ('Clc1ccccc1-c1nc2ccccc2[nH]1', 'SN12C renal', 'TGI', '> 100 µM'),
  ('COc1ccc2oc(-c3ccncc3)cc(=O)c2c1', 'SN12C renal', 'TGI', '> 100 µM');

Consider the compound shown here: C=CCN1CC2CN=NC2(C#N)C1 (stereo not given) What is its recorded TGI?
> 100 µM

Next: CN(C)CCCNC(=O)c1cc2c3ccccc3[nH]c2c2ncccc12
> 100 µM

---

Measured TGI accompanies every entry in the list below.
# System: MCF7 breast
# ASSAY_REMARKS: NCI tumour cell line growth inhibition, 48 h

Record excerpt, results attached:
INSERT INTO measurements (compound, assay_system, assay_endpoint, result) VALUES
  ('CC(=O)c1ccc2c(c1)oc(=O)n2CCN(C)C', 'MCF7 breast', 'TGI', '> 100 µM'),
  ('Clc1ccccc1-c1nc2ccccc2[nH]1', 'MCF7 breast', 'TGI', '> 100 µM'),
  ('CC(C)OC(=O)c1ccc(CCC2=CC(=O)C(Br)=CC2=O)cc1', 'MCF7 breast', 'TGI', '35.2 µM'),
  ('CC(=O)O[C@H]1CC[C@@]2(C)C(=CC[C@@H]3[C@@H]2CC[C@]2(C)c4nc(N)c(C#N)cc4C[C@@H]32)C1', 'MCF7 breast', 'TGI', '> 100 µM'),
  ('COC(=O)c1ccc(C)cc1C1CN=NC12Cc1cc(C)c(C)cc1C2=O (centres undefined)', 'MCF7 breast', 'TGI', '> 100 µM');

From here, focus on the item given below.
Would you mind telling me what TGI value was observed for Cc1sc2nc(-c3ccccn3)c(/C=N/N=C(N)N)n2c1C ?
34 µM

---

A collection of compounds and their measured TGI
# Tested on: SF-268 CNS
# ASSAY_REMARKS: NCI tumour cell line growth inhibition, 48 h

INSERT INTO assay_data (compound, result) VALUES
  ('CCCNC(=O)c1cc2ccccc2cc1C(=O)OC', '> 100 µM'),
  ('c1ccc(C(CCN2CCCC2)c2ccccn2)cc1 (stereo not drawn)', '> 100 µM');

// below: TGI requested for another compound
So what does the record say about TGI for CCN(CC)C(=O)c1c(N2CCOCC2)cc(N(CC)CC)oc1=O ?
> 100 µM
